tested on: P-4E-BP1 (T37/46); assay: Cell based AlphaLISA assay, inhibition of P-4E-BP1 (T37/46) in MDA-MB-468 cells (mTORC1 substrate); details: Homo sapiens, 4 h, AlphaLisa, two to four hours at 37° C., read-out: pIC50 for Inhibition of mTORC1 and mTORC2 Substrate Phosphorylation P-4E-BP1-(T37/46) (converted)
Measured IC50 of individual entries

line_notation: CO[C@H]1C[C@@H]2CC[C@@H](C)[C@@](O)(O2)C(=O)C(=O)N2CCCC[C@H]2C(=O)O[C@H]([C@H](C)C[C@@H]2CC[C@@H](OC(=S)NCCOCCOCCOCCOCCOCCOCCOCCOCCC(=O)N3CCc4cc(Cn5nc(-c6ccc7oc(N)nc7c6)c6c(N)ncnc65)ccc4C3)[C@H](OC)C2)C[C@@H](OC)[C@H](C)/C=C(\C)[C@@H](O)[C@@H](OC)C(=O)[C@H](C)C[C@H](C)/C=C/C=C/C=C/1C
IC50: > 1000 nM

Let us move to another entry and its IC50.
Recall the reported IC50 of "CO[C@H]1C[C@@H]2CC[C@@H](C)[C@@](O)(O2)C(=O)C(=O)N2CCCC[C@H]2C(=O)O[C@H]([C@H](C)C[C@@H]2CC[C@@H](OC(=O)NCc3cnc(N4CCN(C(=O)CCOCCN5CCN(c6ncc(C(=O)N7CCc8cc(Cn9nc(-c%10cnc%11[nH]ccc%11c%10)c%10c(N)ncnc%109)ccc8C7)cn6)CC5)[C@@H](C(=O)O)C4)nc3)[C@H](OC)C2)CC(=O)[C@H](C)/C=C(\C)[C@@H](O)[C@@H](OC)C(=O)[C@H](C)C[C@H](C)/C=C/C=C/C=C/1C" on P-4E-BP1 (T37/46) and write it down.
> 1000 nM
